Test: Toxicity liver stage against HepG2, at 10uM
Assay type: cell-based
Parameters: test concentration 10 uM, cell line HepG2-A16-CD81EGFP
Settings: human, HepG2-A16-CD81EGFP cells; read-out: INHIBITION
ASSAY_READOUT: cytotoxicity at 10 µM
The answer should read as a number with its unit following.

• COc1ccc(C(=O)C2CCCN(Cc3cnn(C)c3C)C2)c(OC)c1 (stereo unspecified) = -8.85%
• O=C(O)COc1ccccc1CN1CCCC1c1cnccn1 (stereo unspecified) = 22%
• Cc1ccc(C(=O)N2C[C@H](OCc3cccnc3)[C@H]3COC[C@H]32)cn1 = -1.52%
• CC(=O)Nc1ccc(CN2C[C@@H]3CC[C@H]2CN(c2ncccn2)C3)cc1 = -0.0298%
• COc1cc(N2CCC(c3nccn3Cc3ccccn3)CC2)ncn1 = -14.2%

Lab note: next molecule to report on.
[Q] Consider the molecule shown here: CCOCCN1CCN(Cc2cccc(C(=O)N(C)C)c2)CC1C (stereo unspecified) What is its recorded cytotoxicity at 10 µM?
[A] 3.57%
